Numbers sourced from patent US9382197B2.

Target: purified human HDAC6 (Homo sapiens, UniProt Q9UBN7)
Construct: purchased BPS Bioscience 5006
Sequence (Q9UBN7 1-1215): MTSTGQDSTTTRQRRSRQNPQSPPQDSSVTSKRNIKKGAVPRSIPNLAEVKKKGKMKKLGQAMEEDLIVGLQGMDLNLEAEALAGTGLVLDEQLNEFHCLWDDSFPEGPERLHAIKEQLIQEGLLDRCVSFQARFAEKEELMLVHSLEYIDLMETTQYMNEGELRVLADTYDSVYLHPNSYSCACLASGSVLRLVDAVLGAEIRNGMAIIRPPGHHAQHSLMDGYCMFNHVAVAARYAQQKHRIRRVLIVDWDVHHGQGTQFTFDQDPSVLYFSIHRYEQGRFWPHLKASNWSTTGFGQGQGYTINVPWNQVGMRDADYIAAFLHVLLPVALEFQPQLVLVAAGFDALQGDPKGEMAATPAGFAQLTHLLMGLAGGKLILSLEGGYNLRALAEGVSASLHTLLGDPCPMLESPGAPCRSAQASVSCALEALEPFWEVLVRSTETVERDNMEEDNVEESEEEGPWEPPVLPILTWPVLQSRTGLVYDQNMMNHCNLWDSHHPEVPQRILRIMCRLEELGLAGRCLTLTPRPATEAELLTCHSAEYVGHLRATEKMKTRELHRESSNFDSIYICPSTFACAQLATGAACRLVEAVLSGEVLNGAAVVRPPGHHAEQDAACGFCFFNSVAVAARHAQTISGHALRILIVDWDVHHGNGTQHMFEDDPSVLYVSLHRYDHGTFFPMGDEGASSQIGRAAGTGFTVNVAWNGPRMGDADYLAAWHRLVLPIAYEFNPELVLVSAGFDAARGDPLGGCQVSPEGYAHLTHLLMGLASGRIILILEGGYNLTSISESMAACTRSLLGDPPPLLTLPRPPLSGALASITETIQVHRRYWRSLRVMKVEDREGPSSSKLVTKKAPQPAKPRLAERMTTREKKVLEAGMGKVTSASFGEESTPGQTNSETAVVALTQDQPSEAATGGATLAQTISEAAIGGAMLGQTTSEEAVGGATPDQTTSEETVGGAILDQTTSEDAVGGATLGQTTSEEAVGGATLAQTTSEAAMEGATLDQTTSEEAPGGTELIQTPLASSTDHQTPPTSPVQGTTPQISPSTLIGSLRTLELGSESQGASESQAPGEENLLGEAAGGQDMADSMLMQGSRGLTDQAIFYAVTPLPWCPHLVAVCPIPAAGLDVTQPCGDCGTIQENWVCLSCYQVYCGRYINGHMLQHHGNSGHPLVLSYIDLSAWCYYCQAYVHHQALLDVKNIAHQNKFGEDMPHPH
Test: HDAC6 Enzyme Assay
Type: biochemical
Conditions: purified human HDAC6, substrate Ac-Arg-Gly-Lys(Ac)-AMC, 1 hour at 30° C.; reported as bins
pIC50: −log10 of the molar value.
Measurement Name: pIC50

                                   molecule  result
0  CC(NC(=O)Nc1ccc(F)c(F)c1)c1ccc(C(=O)NO)cc1 (centres unmarked) [Compound I-275]  > 7.00

Value of measured pIC50 for the entry CC(NC(=O)Nc1ccc(C(C)(C)C)cc1)c1ccc(C(=O)NO)cc1 (centres unmarked) [Compound I-140] : > 7.00

Entry CC(NC(=O)Nc1ccc2c(c1)CCO2)c1ccc(C(=O)NO)cc1 (centres unmarked) [Compound I-148] ; pIC50 = > 7.00

Please fill in: pIC50 reported for CC(NS(=O)(=O)c1ccc(-c2cnco2)cc1)c1ccc(C(=O)NO)cc1 (centres unmarked) [Compound I-178] = 6.30 to 7.00

The molecule identified as Cc1ccc2[nH]c(C(=O)NC(C)c3cccc(C(=O)NO)c3)c(C)c2c1 (centres unmarked) [Compound I-376] registered its pIC50 at 6.30 to 7.00

The recorded pIC50 for entry CC(NS(=O)(=O)c1ccccc1)c1ccc(C(=O)NO)cc1 (centres unmarked) [Compound I-315] equals 6.30 to 7.00

# molecule C[C@@H](NC(=O)Nc1ccc2c(c1)CCO2)c1ccc(C(=O)NO)cc1 [Compound I-528] ; its pIC50 = > 7.00
